Tested on: glycogen synthase kinase-3 (GSK3A per assay name; protocol says GSK3B)
procedure.text: compounds binding glycogen synthase kinase-3 – biochemical, small-molecule microarray, 635 nm fluorescence, GSK3A, primary screen (AID 1103); also: the record names both GSK3A and GSK3B
experimental.context: fluorescence 635 nm, higher = more signal
reported.metric: composite z-score

Use these answered entries as a reference point.
# compound, composite z-score
records = [
    ("COc1ccc([Si](C)(C)[C@H]2[C@H](CCn3cc(CCO)nn3)O[C@@]3(C(=O)N(Cc4cccc(N5C(=O)c6cccc7cccc5c67)c4)c4ccccc43)[C@@H]2C)cc1", 0.719),
    ("C=C(C)[C@@H]1CC=C(C(O)C2C=CC3C(=O)N(C4CCCCC4)C(=O)C3N2Nc2ccc(OC)cc2)CC1 (some centres undefined)", 1.31),
    ("C[N+](C)(C)CCCC[C@@H]1NC(=O)[C@H]2C[C@@H](C(=O)NCCCCCCN)[C@@H](c3cccc(OCCO)c3)N2C1=O", 1.33),
    ("C=CCC(OC(C)=O)[C@@H]1[C@@H](N(Cc2cc3ccccc3o2)C(=O)Cc2ccc(OC)cc2)c2cc(OCCCO)ccc2N1C(=O)c1ccc(-c2ccccc2)cc1 (some centres undefined)", -0.158),
    ("CC(C)NC(=O)[C@@H]1c2ccccc2C(=O)N(Cc2cc(C(F)(F)F)cc(C(F)(F)F)c2)[C@H]1c1ccc(CO)cc1", 0.811),
]

Could I get composite z-score for every one of these entries?
1. CC(C)[Si](C#C[Si](C(C)C)(C(C)C)C(C)C)(O[C@H](C)c1cn(Cc2cccc(Cl)c2)nn1)C(C)C
2. CCOc1cc(C(O)C2C=CC3C(=O)NC(=O)C3N2Nc2ccccn2)ccc1O (centres undefined)
3. O=C(O)[C@]1(CCS(=O)(=O)c2ccccc2)N=C(c2ccc(OCCCO)cc2)O[C@@H]1c1ccccc1
4. COCCOC(=O)N1C(=O)[C@@]2(c3cc(C#CCC(C(=O)OC)C(=O)OC)ccc31)[C@H](C(=O)N1CCCCCCC1)[C@H]1C(=O)O[C@H](c3ccccc3)[C@H](c3ccccc3)N1[C@@H]2c1ccc(O)cc1
5. COC(=O)c1ccc(OC)c(/C=C\CC(CCc2ccccc2)OC(C)=O)c1 (centres undefined)
6. CCCC=C(CCC)[C@@H](NC(=O)Cc1ccccc1)c1ccc(C(=O)OC)cc1
7. COC(=O)[C@@]1(Cc2ccc(F)cc2)[C@H]2c3cc(C(=O)N(C)C)n(Cc4ccc(C)c(F)c4F)c3C[C@H]2CN1C(=O)c1ccccc1

stdout:
[1.14, 0.156, 0.439, 1.3, -0.0629, 0.289, -0.224]

Batch: composite z-score for all items listed.
1. CC(C)(C)OC(=O)CC[C@]1(C(=O)O)COC(c2ccc(OCCCO)cc2)=N1
2. COCCOC(=O)N1C(=O)[C@@]2(c3cc(C#Cc4ccc(OC)cc4)ccc31)[C@H](C(=O)N1CCc3cc(OC)c(OC)cc3C1)[C@H]1C(=O)O[C@H](c3ccccc3)[C@H](c3ccccc3)N1[C@@H]2c1ccc(O)cc1

stdout:
-0.69
1.21
